Origin of the recorded values: patent US9458104B2

Measured pIC50 (REN) accompanies every entry in the list below.
targetOfAssay: RORγ (UniProt P51449)
Construct: hRORg-LBD|aa259-518|NP_005051.2; hRORgt|aa1-497|NP_001001523 (RORg, t isoform, 497aa); mRORg-LBD|aa264-516|NP_035411
Format: cell-based
particulars: renilla normalised (RENnorm) luciferase, 293T cells, 16 h

Reference set, count: 6
CC(=O)NS(=O)(=O)c1nc(-c2cc(C(C)(C)C)cc(C(C)(C)C)c2)n(CC2CCCCC2)n1    < 4.7
Cn1c(C(=O)NCC(C)(C)O)cc(-c2cc(C(C)(C)C)cc(C3(C)CC3)c2)c1C(=O)C1CCCCC1    7.9
Cc1cc(-n2nc(C(=O)NC3CC3)cc2CC2CCCCC2)cc(C(C)(C)C)c1    6.1
Cn1c(C(=O)N[C@H]2C[C@H](C(=O)O)C2)c(Cl)c(CC2CCCCC2)c1-c1cc(C(C)(C)C)cc(C2(C)CC2)c1    6.7
CC(C)(C)NS(=O)(=O)c1ccc(-c2nc(C(=O)NC3CCOCC3)nn2CC2CCCCC2)cc1C(C)(C)C    5.6
CC(C)(C)c1cc(-n2nc(C(=O)NCc3ccn[nH]3)c(Cl)c2CC2CCCCC2)cc(C(C)(C)C)c1    < 4.7

Now for another entry.
Task: Need pIC50 (REN), item Cn1c(C(=O)N[C@H]2C[C@H](C(=O)O)C2)cc(-c2ccc(S(=O)(=O)NC(C)(C)C)c3ccccc23)c1C(=O)C1CCCCC1
Result: 7.2
